Hello, the source for this data is patent US20180237399A1, in case you need it.

target: GPR84 (Homo sapiens); experiment: Detection of cytoplasmic calcium ion concentration with Fluo-4 fluorescent dye tracer assay (GPR84 agonist activity); assay type: cell-based; design: expressed in transfected cells; host or cells: HEK293; conditions: HEK293 cell line transfected with GPR84 and G16; Fluo-4 calcium fluorescence
Sequence (Q9NQS5 whole entry): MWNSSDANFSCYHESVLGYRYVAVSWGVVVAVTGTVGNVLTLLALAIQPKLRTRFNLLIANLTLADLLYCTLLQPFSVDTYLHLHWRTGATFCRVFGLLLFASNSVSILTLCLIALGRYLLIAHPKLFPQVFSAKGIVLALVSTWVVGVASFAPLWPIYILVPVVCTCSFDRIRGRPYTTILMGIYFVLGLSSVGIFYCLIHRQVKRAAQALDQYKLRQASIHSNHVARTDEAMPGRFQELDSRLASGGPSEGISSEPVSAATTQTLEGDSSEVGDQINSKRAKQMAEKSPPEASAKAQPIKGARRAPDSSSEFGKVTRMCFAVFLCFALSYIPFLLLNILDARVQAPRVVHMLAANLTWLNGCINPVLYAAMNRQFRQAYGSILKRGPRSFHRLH
pEC50: −log10 of the molar value.
value.type: pEC50

| given.smiles | value.observed |
| --- | --- |
| CCCCCCCCCc1cc(O)cc(=O)o1 | 8.45 |
| CCCCCCCCSc1nc(O)cc(O)n1 | 6.58 |
| CCCCCCCCc1nc(O)nc(O)n1 | 5.99 |
| CCCCCCCCCCCCCCCCSc1nc(O)cc(O)n1 | 4.95 |
| Oc1cc(O)nc(SCCCCCc2ccccc2)n1 | 5.97 |
| Oc1cc(O)nc(SCCCc2ccccc2)n1 | 6.24 |
| C#CCCCSc1nc(O)cc(O)n1 | 4.67 |
| CCC#CCCSc1nc(O)cc(O)n1 | 6.19 |
| CCCCCCCCc1nc(O)cc(O)n1 | 7.95 |
| Oc1cc(O)nc(SCCCCc2ccccc2)n1 | 6.36 |
